tested on: Norovirus; assay: Antiviral activity against Norovirus infected in HG23 cells assessed as inhibition of viral replication at 24 hrs by qRT-PCR analysis; assay type: functional; conditions: Norovirus, HG23, 24 h; read-out: ED50 (the source's name)
attribute-measured: pEC50
Give only the number. pEC50 is defined as minus log10 of concentration in molar units.

Example cases with answers are listed next.
- compound: "CSCCC(NS(=O)(=O)NCc1cccc(Oc2ccccc2)c1)C(=O)NCCN1CCOCC1 (racemic; 6d)"
  measured-value: 5.35
- compound: "O=C(CNS(=O)(=O)NCc1cccc(Oc2ccccc2)c1)NCc1ccccc1"
  measured-value: 5.09

Let us move to another entry and its pEC50.
Measured pEC50 of O=C(CNS(=O)(=O)NCc1cccc(Oc2ccccc2)c1)N1CCN(Cc2ccccc2)CC1 : 5.26

====

experiment: Therapeutic index, ratio of TD50 for human HG23 cells to ED50 for Norovirus infected in HG23 cells; format: cell-based; settings: hg23
Listed here are compounds together with their documented Ratio TD50/ED50.

Example cases with answers are listed next.
- compound: "Cl.O=C(CNS(=O)(=O)NCc1cccc(Oc2ccccc2)c1)N1CCN(Cc2ccccc2)CC1"
  Ratio TD50/ED50: 21
- compound: "CSCCC(NS(=O)(=O)NCc1cccc(Oc2ccccc2)c1)C(=O)NCCN1CCOCC1.Cl (racemic; 7d)"
  Ratio TD50/ED50: 54
- compound: "CN(CC(=O)NCCN1CCOCC1)S(=O)(=O)NCc1cccc(Oc2ccccc2)c1.Cl"
  Ratio TD50/ED50: 24

Let us move to another entry and its Ratio TD50/ED50.
Measured Ratio TD50/ED50 of CN(CC(=O)NCCN1CCOCC1)S(=O)(=O)NCc1cccc(Oc2ccccc2)c1 : 63

====

system: Norovirus; test: Inhibition of Norovirus 3C protease
Active and inactive are the calls of the source. No cut-off for these calls is given here.
attribute-measured: inhibition

- compound: "O=C(CNS(=O)(=O)NCc1cccc(Oc2ccccc2)c1)NCc1ccco1"
  target-under-test: "Norovirus"
  inhibition: "inactive"
- compound: "CSCCC(NS(=O)(=O)NCc1cccc(Oc2ccccc2)c1)C(=O)NCCN1CCOCC1 (racemic; 7d)"
  target-under-test: "Norovirus"
  inhibition: "inactive"
- compound: "COC(=O)C1CCN(C(=O)CNS(=O)(=O)NCc2cccc(Oc3ccccc3)c2)CC1"
  target-under-test: "Norovirus"
  inhibition: "inactive"
- compound: "O=C(CN(Cc1ccccc1)S(=O)(=O)NCc1cccc(Oc2ccccc2)c1)NCCN1CCOCC1"
  target-under-test: "Norovirus"
  inhibition: "inactive"

Measured inhibition of O=C(CNS(=O)(=O)NCc1cccc(Oc2ccccc2)c1)N1CCN(Cc2ccccc2)CC1 : inactive

====

Listed here are compounds together with their documented pEC50.
tested on: Norovirus; experiment: Antiviral activity against Norovirus infected in HG23 cells assessed as inhibition of viral replication at 24 hrs by qRT-PCR analysis; assay type: functional; conditions: Norovirus, HG23, 24 h; read-out: ED50 (the source's name)
pEC50: −log10 of the molar value.

Example cases with answers are listed next.
- compound: "O=C(O)C1CCN(C(=O)CNS(=O)(=O)NCc2cccc(Oc3ccccc3)c2)CC1"
  target-under-test: "Norovirus"
  pEC50: "< 5.00"
- compound: "O=C(CNS(=O)(=O)NCc1cccc(Oc2ccccc2)c1)NCc1ccco1"
  target-under-test: "Norovirus"
  pEC50: "< 5.00"
- compound: "COC(=O)C1CCN(C(=O)CNS(=O)(=O)NCc2cccc(Oc3ccccc3)c2)CC1"
  target-under-test: "Norovirus"
  pEC50: "< 5.00"

Measured pEC50 of CCCC(NS(=O)(=O)NCc1cccc(Oc2ccccc2)c1)C(=O)NCCN1CCOCC1 (racemic) : < 5.00

Measured pEC50 of COC(=O)C1CCC(NC(=O)CNS(=O)(=O)NCc2cccc(Oc3ccccc3)c2)CC1 (stereo not given) : < 5.00
